The following compounds are listed with their measured Potency values.
- study-system: Glucocorticoid receptor (Homo sapiens) (UniProt P04150)
- Sequence (P04150 whole entry, looked up): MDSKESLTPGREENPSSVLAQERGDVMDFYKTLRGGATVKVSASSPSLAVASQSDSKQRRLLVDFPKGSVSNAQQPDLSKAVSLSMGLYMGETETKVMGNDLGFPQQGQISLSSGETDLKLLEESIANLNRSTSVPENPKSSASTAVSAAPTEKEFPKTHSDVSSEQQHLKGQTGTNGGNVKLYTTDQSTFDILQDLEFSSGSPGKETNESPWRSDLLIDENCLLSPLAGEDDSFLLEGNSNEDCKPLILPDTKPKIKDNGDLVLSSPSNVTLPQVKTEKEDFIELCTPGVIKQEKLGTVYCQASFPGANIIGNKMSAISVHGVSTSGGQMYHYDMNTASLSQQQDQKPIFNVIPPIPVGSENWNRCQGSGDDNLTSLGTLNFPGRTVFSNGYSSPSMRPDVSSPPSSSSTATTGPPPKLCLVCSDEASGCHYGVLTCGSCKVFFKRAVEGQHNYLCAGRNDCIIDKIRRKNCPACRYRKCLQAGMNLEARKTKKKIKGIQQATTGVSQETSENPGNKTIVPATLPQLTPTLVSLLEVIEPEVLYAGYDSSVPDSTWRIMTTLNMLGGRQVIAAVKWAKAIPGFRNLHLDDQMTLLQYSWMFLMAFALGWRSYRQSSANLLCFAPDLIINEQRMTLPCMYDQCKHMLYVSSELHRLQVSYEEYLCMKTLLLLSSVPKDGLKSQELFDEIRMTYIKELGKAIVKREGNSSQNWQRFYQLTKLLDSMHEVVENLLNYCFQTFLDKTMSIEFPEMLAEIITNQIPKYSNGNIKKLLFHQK
- assay-comment: GR-GFP Redistribution (AID 450); note: potency is the fitted concentration of half-maximal effect
- conditions-used: U2OS GR-GFP nuclear translocation, laser cytometry, 2 h
Activity calls are given as the source filed them.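 Rule for the calls: active = compounds whose dose series gives a full or clear partial fitted curve of increased nuclear translocation; inconclusive = weak partial curve or effect only at the top dose; inactive = no dose-dependent translocation response.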

Check out these entries, answers already filled in.
{"mol-smiles": "Cc1ccccc1-c1cc(N2CCN(C)CC2)ncn1", "Potency": "> 46 µM (inactive)"}
{"mol-smiles": "COCCNc1ccnc(-c2ccccc2C(F)(F)F)n1", "Potency": "> 46 µM (inactive)"}
{"mol-smiles": "COc1ccc(-n2c(=O)cnc3cnc(OC)nc32)cc1", "Potency": "> 9.22 µM (inactive)"}
{"mol-smiles": "COc1ccccc1CCn1c(=O)c(-c2cccc(F)c2)nc2cncnc21", "Potency": "> 9.22 µM (inactive)"}

query: Looking for the measured Potency of CN(C)c1ncnc2ccc(-c3ccccc3C#N)cc12 , can you help?
result: > 46 µM (inactive)

query: Looking for the measured Potency of CN1CCN(c2ncnc3ccc(-c4ccc(C(=O)N(C)C)cc4)cc23)CC1 , can you help?
result: > 46 µM (inactive)

query: Looking for the measured Potency of Cc1noc(C)c1-c1cncnc1NCc1ccccc1 , can you help?
result: > 46 µM (inactive)

query: Looking for the measured Potency of CN(C)Cc1ccccc1-c1nc(NCc2ccccc2)c2ccccc2n1 , can you help?
result: > 46 µM (inactive)

query: Looking for the measured Potency of CN(C)C(=O)c1ccc(-c2cc(Nc3ccccc3)ncn2)cc1 , can you help?
result: > 46 µM (inactive)

query: Looking for the measured Potency of O=c1c(-c2cc(F)cc(F)c2)nc2cnc(Nc3ccccc3)nc2n1C[C@H]1CCCO1 , can you help?
result: > 9.22 µM (inactive)

query: Looking for the measured Potency of CN(C)c1ccc(-c2ccc3ncnc(-n4ccnc4)c3c2)cc1 , can you help?
result: > 46 µM (inactive)

* * *

- assay-comment: qHTS Assay for Lipid Storage Modulators (AID 1519)
- conditions-used: Drosophila S3 cells, BODIPY lipid droplet/cell ratio, laser cytometry; measured here: lipid channel max response; cells loaded with oleic acid
- Protocol: NIH Molecular Libraries Probe Production Centers Network [MLPCN] NIH Chemical Genomics Center [NCGC] Assay Submitter (PI): Beller, Mathias; Max-Planck-Institut fur Biophysikalische Chemie […] We dispensed 4 uL of cells at 1.25 x 10^6 cells/mL into LoBase Aurora COC 1,536-well plates (black walled, clear bottom) with a bottle-valve solenoid-based dispenser (Aurora) to obtain 5,000 cells/well. […] The ratio of the total intensity in PMT channel 1 over total intensity of channel 3 was also calculated. […]
Results filed as inconclusive are left out.
The following compounds are listed with their measured max response values.
Provide the reading as a plain figure in %.

Check out these entries, answers already filled in.
{"mol-smiles": "CC(C)NC(=O)N1CCC2(CC1)CCN(C(=O)c1cc(C(F)(F)F)cc(C(F)(F)F)c1)CC2", "endpoint": "max response", "value-measured": -7.75}
{"mol-smiles": "Cc1noc(C)c1-c1nccc(N2CCOCC2)n1", "endpoint": "max response", "value-measured": 17}

query: Looking for the measured max response of CC(C)NC(=O)N1CC[C@@]2(CCCN(C(=O)c3cccn3C)C2)C1 , can you help?
result: -8.74

query: Looking for the measured max response of Cn1cccc1C(=O)N1CCC[C@@]2(CCN(Cc3ccccc3)C2)C1 , can you help?
result: 9.58

query: Looking for the measured max response of Cn1cccc1C(=O)N1CCC[C@@]2(CCN(Cc3cc(C(F)(F)F)cc(C(F)(F)F)c3)C2)C1 , can you help?
result: -1.35

Value source: PubChem BioAssay (NCATS)
